# System: A549 (Lung cancer)
# assayInfo: Short term (72 h) cytotoxicity assay
# Type: cell-based, human
# runParameters: Homo sapiens; A549, 72 h cytotoxicity

compound	IC50 / nM
C#CC(F)(F)[C@]1(O)CCC2C3CCC4=CC(=O)CCC4=C3C(c3ccc(OC)cc3)C[C@@]21C (stereo partly shown) [EC356]	40
C#CC(F)(F)[C@]1(O)CCC2C3CCC4=CC(=O)CCC4=C3C(c3ccc(C4CC4)cc3)C[C@@]21C (stereo partly shown) [EC330]	25
C#CC(F)(F)[C@]1(O)CCC2C3CCC4=CC(=O)CCC4=C3C(c3ccc(C(C)=O)cc3)C[C@@]21C (stereo partly shown) [EC332]	75
C#CC(F)(F)[C@]1(O)CCC2C3CCC4=CC(=O)CCC4=C3C(c3ccc(C(C)(C)C)cc3)C[C@@]21C (stereo partly shown) [EC357]	35

* * *

pIC50 values by entry
# System: LIF-overexpressing MCF-7 (MCF-7 LIF) human breast cancer cells
# assayInfo: LIF specificity assay, LIF-overexpressing cells
# Type: cell-based
# runParameters: Homo sapiens, MCF7; cytotoxicity, LIF-overexpressing MCF-7; read-out: MCF-7 LIF IC50
pIC50: −log10 of the molar value.

molecule	pIC50
C#CC(F)(F)[C@]1(O)CCC2C3CCC4=CC(=O)CCC4=C3C(c3ccc(CCCCCCC)cc3)C[C@@]21C (some centres unmarked)	7.60
C#CC(F)(F)[C@]1(O)CCC2C3CCC4=CC(=O)CCC4=C3C(c3ccc(OC)cc3)C[C@@]21C (some centres unmarked)	6.60
C#CC(F)(F)[C@]1(O)CCC2C3CCC4=CC(=O)CCC4=C3C(c3ccc(C(=C)C)cc3)C[C@@]21C (some centres unmarked)	7.30
C#CC(F)(F)[C@]1(O)CCC2C3CCC4=CC(=O)CCC4=C3C(c3ccc(S(=O)(=O)C4CC4)cc3)C[C@@]21C (some centres unmarked)	6.30
C#CC(F)(F)[C@]1(O)CCC2C3CCC4=CC(=O)CCC4=C3C(c3ccc(C4CCCCC4)cc3)C[C@@]21C (some centres unmarked)	6.60

* * *

# Tested on: U251 (Glioma)
# assayInfo: Short term (72 h) cytotoxicity assay
# Assay type: cell-based, human
# runParameters: Homo sapiens, U-251; U251, 72 h cytotoxicity
Criterion: IC50 strictly less than 30 nM. Met: met. Not met: not met.

compound	labelValue
C#CC(F)(F)[C@]1(O)CCC2C3CCC4=CC(=O)CCC4=C3C(c3ccc(OC)cc3)C[C@@]21C (some centres unmarked)	not met
C#CC(F)(F)[C@]1(O)CCC2C3CCC4=CC(=O)CCC4=C3C(c3ccc(-n4ccnc4)cc3)C[C@@]21C (some centres unmarked)	not met
C#CC(F)(F)[C@]1(O)CCC2C3CCC4=CC(=O)CCC4=C3C(c3ccc(C4CC4)cc3)C[C@@]21C (some centres unmarked)	met
C#CC(F)(F)[C@]1(O)CCC2C3CCC4=CC(=O)CCC4=C3C(c3ccc(C(C)=O)cc3)C[C@@]21C (some centres unmarked)	not met
